From: ChEMBL document CHEMBL1137777

Listing: pEC50 of selected compounds
# System: HUVEC
# test name: cells
# assay conditions: Homo sapiens, 3 h
# Description: Antiangiogenic activity in HUVEC assessed as inhibition of VEGF-induced cell proliferation by [3H]thymidine incorporation assay
pEC50: −log10 of the molar value.

compound string	target desc	pEC50
COC(=O)c1ccc2c(c1)NC(=O)/C2=C(\Nc1ccc(N(CCN(C)C)S(C)(=O)=O)cc1)c1ccccc1	HUVEC	7.85
COC(=O)c1ccc2c(c1)NC(=O)/C2=C(\Nc1ccc(C(=O)N(C)CCN(C)C)cc1)c1ccccc1	HUVEC	7.60
CC(C)NC(=O)c1ccc2c(c1)NC(=O)/C2=C(\Nc1ccc(CN2CCCCC2)cc1)c1ccccc1	HUVEC	5.97
O=C1Nc2cc(-n3cccc3)ccc2/C1=C(/Nc1ccc(CN2CCCCC2)cc1)c1ccccc1	HUVEC	6.23
COC(=O)c1ccc2c(c1)NC(=O)/C2=C(\Nc1ccc(N(CCCN(C)C)C(C)=O)cc1)c1ccccc1	HUVEC	7.82
O=C1Nc2cc([N+](=O)[O-])ccc2/C1=C(/Nc1ccc(CN2CCCCC2)cc1)c1ccccc1	HUVEC	7.22
N#Cc1ccc2c(c1)NC(=O)/C2=C(\Nc1ccc(CN2CCCCC2)cc1)c1ccccc1	HUVEC	6.55
O=C1Nc2cc(Cl)ccc2/C1=C(/Nc1ccc(CN2CCCCC2)cc1)c1ccccc1	HUVEC	7.31

###

# target desc: UniProtKB P08069
# Sequence (P08069 31-736 limits assumed): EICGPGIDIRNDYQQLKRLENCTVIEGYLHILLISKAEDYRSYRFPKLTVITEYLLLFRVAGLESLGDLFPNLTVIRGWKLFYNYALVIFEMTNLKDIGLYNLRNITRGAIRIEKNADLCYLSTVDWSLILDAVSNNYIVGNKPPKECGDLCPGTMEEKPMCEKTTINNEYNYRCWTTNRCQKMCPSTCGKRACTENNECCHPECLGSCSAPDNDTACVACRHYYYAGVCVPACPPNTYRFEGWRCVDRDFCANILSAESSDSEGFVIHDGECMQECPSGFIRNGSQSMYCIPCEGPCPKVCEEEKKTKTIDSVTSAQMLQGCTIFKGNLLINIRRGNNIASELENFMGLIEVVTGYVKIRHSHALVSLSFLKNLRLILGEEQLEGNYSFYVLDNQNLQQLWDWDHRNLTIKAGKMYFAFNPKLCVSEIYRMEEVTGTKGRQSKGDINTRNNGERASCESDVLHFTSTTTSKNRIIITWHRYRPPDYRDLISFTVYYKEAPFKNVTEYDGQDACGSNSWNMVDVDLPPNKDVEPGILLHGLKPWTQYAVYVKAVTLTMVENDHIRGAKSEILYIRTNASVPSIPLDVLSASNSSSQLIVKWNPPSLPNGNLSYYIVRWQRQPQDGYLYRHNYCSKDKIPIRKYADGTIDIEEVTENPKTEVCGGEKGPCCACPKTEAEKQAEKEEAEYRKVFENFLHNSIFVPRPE
# Sequence (P08069 741-1367 limits assumed): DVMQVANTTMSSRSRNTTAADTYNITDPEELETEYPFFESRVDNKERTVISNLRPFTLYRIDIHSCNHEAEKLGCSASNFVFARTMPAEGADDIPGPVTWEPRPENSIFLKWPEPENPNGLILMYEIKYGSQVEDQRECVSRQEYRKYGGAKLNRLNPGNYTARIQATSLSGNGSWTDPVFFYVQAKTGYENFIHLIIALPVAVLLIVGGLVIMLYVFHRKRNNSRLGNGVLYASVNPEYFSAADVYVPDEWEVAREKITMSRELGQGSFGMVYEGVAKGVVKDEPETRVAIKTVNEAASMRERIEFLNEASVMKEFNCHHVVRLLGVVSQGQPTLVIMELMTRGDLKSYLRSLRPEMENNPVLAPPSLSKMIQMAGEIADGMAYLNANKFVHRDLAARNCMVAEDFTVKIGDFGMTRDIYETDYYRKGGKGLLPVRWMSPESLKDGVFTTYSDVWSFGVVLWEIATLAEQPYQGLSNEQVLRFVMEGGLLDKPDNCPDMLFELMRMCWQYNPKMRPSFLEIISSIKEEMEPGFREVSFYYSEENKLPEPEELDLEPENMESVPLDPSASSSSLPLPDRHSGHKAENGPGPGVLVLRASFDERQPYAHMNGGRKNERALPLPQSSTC
pIC50: −log10 of the molar value.
measured metric: pIC50

compound string	measured metric	experimental value
COC(=O)c1ccc2c(c1)NC(=O)/C2=C(\Nc1ccc(CN(C)C(=O)N(C)C)cc1)c1ccccc1	pIC50	< 5.00

###

Heads up, these compounds all have IC50 values measured for UniProt P35968.
Sequence (P35968 whole entry): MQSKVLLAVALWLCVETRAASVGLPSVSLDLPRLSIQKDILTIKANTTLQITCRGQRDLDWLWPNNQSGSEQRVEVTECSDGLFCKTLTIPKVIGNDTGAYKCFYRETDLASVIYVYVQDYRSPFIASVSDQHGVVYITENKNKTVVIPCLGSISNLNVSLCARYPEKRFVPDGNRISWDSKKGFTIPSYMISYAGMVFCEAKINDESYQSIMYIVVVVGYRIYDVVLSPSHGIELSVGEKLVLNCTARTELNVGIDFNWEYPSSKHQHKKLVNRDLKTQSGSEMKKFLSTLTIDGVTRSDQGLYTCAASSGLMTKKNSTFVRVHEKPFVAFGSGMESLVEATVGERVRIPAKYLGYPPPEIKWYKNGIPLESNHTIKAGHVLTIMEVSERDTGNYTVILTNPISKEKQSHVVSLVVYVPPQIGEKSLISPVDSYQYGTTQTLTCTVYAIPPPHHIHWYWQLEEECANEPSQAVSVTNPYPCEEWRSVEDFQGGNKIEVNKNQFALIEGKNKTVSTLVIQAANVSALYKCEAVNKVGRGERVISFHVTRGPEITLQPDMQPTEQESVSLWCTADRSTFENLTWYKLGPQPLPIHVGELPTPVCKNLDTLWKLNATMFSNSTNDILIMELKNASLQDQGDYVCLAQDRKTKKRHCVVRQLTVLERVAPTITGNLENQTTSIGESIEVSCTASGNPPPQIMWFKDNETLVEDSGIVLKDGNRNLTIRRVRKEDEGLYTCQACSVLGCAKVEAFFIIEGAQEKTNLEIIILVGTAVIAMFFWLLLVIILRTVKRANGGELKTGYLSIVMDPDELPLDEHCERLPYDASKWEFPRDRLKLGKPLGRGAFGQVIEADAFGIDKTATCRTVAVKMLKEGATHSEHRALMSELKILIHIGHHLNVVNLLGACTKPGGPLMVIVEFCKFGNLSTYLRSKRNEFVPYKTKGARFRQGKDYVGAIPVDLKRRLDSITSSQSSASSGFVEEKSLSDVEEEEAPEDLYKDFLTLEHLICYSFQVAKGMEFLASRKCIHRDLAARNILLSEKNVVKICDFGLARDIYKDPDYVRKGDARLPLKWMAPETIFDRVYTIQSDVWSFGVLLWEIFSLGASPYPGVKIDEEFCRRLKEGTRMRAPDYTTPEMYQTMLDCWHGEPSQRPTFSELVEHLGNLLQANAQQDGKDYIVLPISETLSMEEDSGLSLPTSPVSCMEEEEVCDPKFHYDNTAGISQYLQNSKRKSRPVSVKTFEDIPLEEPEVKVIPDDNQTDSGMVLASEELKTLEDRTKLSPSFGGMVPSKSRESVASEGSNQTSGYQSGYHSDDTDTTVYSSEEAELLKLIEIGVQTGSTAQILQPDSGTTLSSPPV
measured metric: IC50

compound string	target desc	measured metric	experimental value
COC(=O)c1ccc2c(c1)NC(=O)/C2=C(\Nc1cccc(C(=O)N(C)CCCN(C)C)c1)c1ccccc1	UniProt P35968	IC50	248 nM
COC(=O)c1ccc2c(c1)NC(=O)/C2=C(\Nc1ccc(C(=O)N(C)CCN(C)C)cc1)c1ccccc1	UniProt P35968	IC50	24 nM
O=C1Nc2ccccc2/C1=C(/Nc1ccc(CN2CCCCC2)cc1)c1ccccc1	UniProt P35968	IC50	2110 nM
COC(=O)c1ccc2c(c1)NC(=O)/C2=C(\Nc1ccc(N(C)C(=O)Cn2ccnc2)cc1)c1ccccc1	UniProt P35968	IC50	6 nM
COC(=O)c1ccc2c(c1)NC(=O)/C2=C(\Nc1ccc(N(CC(=O)N(C)C)C(C)=O)cc1)c1ccccc1	UniProt P35968	IC50	8 nM
CCN(C)C(=O)c1ccc2c(c1)NC(=O)/C2=C(\Nc1ccc(CN2CCCCC2)cc1)c1ccccc1	UniProt P35968	IC50	1450 nM
COC(=O)c1ccc2c(c1)NC(=O)/C2=C(\Nc1ccccc1)c1ccccc1	UniProt P35968	IC50	8000 nM
O=C1Nc2cc([N+](=O)[O-])ccc2/C1=C(/Nc1ccc(CN2CCCCC2)cc1)c1ccccc1	UniProt P35968	IC50	7 nM
COC(=O)c1ccc2c(c1)NC(=O)/C2=C(\Nc1ccc(CN2CCCCC2)cc1)c1ccccc1	UniProt P35968	IC50	36 nM
CCOC(=O)c1ccc2c(c1)NC(=O)/C2=C(\Nc1ccc(CN2CCCCC2)cc1)c1ccccc1	UniProt P35968	IC50	109 nM
O=C1Nc2cc(C(=O)O)ccc2/C1=C(/Nc1ccc(CN2CCCCC2)cc1)c1ccccc1	UniProt P35968	IC50	> 1000 nM
COC(=O)c1ccc2c(c1)NC(=O)/C2=C(\Nc1ccc(CN(C)C)cc1)c1ccccc1	UniProt P35968	IC50	64 nM

###

# target desc: Epidermal growth factor receptor (Homo sapiens)
measured metric: IC50

compound string	measured metric	experimental value
NC(=O)c1ccc2c(c1)NC(=O)/C2=C(\Nc1ccc(CN2CCCCC2)cc1)c1ccccc1	IC50	> 10 µM

###

# test name: Plasma concentration in NMRI nu/nu mouse at 50 mg/kg, po administered as single dose after 2 hrs
# Assay type: ADME, organism-based
# Parameters: dose 50 mg/kg, route oral

compound string	concentration at 2 h
COC(=O)c1ccc2c(c1)NC(=O)/C2=C(\Nc1ccc(N(C)C(=O)CN2CCN(C)CC2)cc1)c1ccccc1	923 nM

###

# test name: Half life in NMRI nu/nu mouse at 50 mg/kg, po administered as single dose
# Format: ADME, organism-based
# Set-up: dose 50 mg/kg, route oral
# assay conditions: in vivo
measured metric: half-life (h)

compound	experimental value
COC(=O)c1ccc2c(c1)NC(=O)/C2=C(\Nc1ccc(CN2CCCCC2)cc1)c1ccccc1	3.5
COC(=O)c1ccc2c(c1)NC(=O)/C2=C(\Nc1ccc(N(C)C(=O)CN2CCN(C)CC2)cc1)c1ccccc1 [NINTEDANIB]	5

###

# target desc: UniProt:P11362
# Sequence (P11362 whole entry): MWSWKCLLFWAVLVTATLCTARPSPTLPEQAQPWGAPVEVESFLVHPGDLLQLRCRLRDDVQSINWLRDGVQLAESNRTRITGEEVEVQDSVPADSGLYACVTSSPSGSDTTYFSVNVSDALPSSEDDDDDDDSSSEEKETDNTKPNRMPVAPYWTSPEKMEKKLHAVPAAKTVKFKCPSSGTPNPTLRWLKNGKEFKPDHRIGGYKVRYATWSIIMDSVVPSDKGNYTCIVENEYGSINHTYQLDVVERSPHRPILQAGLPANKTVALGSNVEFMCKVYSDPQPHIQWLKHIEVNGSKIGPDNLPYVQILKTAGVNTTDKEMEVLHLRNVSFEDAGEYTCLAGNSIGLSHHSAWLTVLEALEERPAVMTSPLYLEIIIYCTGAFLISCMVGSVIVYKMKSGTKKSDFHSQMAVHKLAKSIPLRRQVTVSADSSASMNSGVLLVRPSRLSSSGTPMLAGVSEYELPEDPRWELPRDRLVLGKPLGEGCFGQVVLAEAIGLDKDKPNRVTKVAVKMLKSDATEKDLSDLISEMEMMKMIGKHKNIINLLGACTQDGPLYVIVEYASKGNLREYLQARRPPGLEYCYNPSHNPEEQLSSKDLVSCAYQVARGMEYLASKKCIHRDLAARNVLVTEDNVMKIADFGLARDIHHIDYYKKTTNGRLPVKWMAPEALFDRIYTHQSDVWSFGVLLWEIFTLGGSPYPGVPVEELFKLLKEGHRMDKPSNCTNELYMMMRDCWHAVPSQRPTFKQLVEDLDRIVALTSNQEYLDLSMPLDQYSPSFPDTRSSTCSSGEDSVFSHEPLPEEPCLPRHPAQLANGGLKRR
measured metric: IC50

compound string	experimental value
COC(=O)c1ccc2c(c1)NC(=O)/C2=C(\Nc1ccc(CN2CCCCC2)cc1)c1ccccc1	71 nM

###

# target desc: Insulin receptor (Homo sapiens, UniProt P06213)
# Sequence (P06213 28-758 limits assumed): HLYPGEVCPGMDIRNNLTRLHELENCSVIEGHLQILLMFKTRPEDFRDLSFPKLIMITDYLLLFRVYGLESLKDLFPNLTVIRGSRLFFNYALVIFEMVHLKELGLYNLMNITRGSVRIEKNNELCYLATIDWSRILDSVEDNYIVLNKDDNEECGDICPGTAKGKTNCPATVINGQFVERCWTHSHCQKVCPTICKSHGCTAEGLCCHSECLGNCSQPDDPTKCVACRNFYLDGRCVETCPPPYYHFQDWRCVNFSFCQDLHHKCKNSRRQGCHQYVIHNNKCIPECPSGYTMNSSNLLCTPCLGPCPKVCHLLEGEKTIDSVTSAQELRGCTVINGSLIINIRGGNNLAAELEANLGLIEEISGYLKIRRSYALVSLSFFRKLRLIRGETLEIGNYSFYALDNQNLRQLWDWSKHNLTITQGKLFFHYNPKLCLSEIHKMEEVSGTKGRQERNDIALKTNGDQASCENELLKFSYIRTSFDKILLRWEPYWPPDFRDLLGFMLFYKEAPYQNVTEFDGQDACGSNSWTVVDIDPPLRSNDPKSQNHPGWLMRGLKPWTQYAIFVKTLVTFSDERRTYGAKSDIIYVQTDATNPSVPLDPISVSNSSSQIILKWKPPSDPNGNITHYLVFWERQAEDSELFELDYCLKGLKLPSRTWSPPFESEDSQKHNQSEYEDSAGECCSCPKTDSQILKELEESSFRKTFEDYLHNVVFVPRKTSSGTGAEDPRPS
# Sequence (P06213 763-1382 limits assumed): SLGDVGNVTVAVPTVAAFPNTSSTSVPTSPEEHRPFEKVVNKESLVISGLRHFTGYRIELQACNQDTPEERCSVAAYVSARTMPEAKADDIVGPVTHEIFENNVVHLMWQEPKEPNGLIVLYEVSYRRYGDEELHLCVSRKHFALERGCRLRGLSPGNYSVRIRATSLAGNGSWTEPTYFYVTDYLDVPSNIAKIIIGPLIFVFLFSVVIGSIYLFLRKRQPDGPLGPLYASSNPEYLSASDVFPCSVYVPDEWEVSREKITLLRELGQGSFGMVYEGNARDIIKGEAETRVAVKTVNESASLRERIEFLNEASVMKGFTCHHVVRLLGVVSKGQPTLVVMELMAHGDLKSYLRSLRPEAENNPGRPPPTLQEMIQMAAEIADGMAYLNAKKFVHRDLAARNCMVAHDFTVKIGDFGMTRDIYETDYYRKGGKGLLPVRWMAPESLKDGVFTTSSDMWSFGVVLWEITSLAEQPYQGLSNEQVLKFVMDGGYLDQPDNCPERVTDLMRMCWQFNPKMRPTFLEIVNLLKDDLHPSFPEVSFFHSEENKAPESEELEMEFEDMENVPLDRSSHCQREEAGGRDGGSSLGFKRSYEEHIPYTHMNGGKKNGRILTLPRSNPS
pIC50: −log10 of the molar value.

compound string	pIC50
COC(=O)c1ccc2c(c1)NC(=O)/C2=C(\Nc1ccc(CN(C)C(=O)N(C)C)cc1)c1ccccc1	< 5.00

###

# target desc: Serine/threonine-protein kinase PLK1 (Homo sapiens, UniProt P53350)

compound string	IC50
COC(=O)c1ccc2c(c1)NC(=O)/C2=C(\Nc1ccc(N(C)C(=O)CN2CCN(C)CC2)cc1)c1ccccc1	> 10 µM

###

# test name: Oral bioavailability in NMRI nu/nu mouse at 50 mg/kg administered as single dose
# Format: ADME, organism-based
# assay conditions: in vivo

compound string	bioavailability
COC(=O)c1ccc2c(c1)NC(=O)/C2=C(\Nc1ccc(N(C)C(=O)CN2CCN(C)CC2)cc1)c1ccccc1	45%

###

# test name: AUC in NMRI nu/nu mouse at 50 mg/kg, po administered as single dose
# Type: ADME, organism-based, Plasma
# Parameters: dose 50 mg/kg, route oral
# assay conditions: NMRI nu/nu, plasma

compound string	AUC / ng·h/mL
COC(=O)c1ccc2c(c1)NC(=O)/C2=C(\Nc1ccc(CN2CCCCC2)cc1)c1ccccc1	5250

###

# test name: Plasma concentration in NMRI nu/nu mouse at 50 mg/kg, po administered as single dose after 24 hrs
# Assay type: ADME, organism-based
# Design: dose 50 mg/kg, route oral

compound string	readout units	concentration at 24 h
COC(=O)c1ccc2c(c1)NC(=O)/C2=C(\Nc1ccc(N(C)C(=O)CN2CCN(C)CC2)cc1)c1ccccc1	nM	8
